Target: 26S proteasome non-ATPase regulatory subunit 14 (Homo sapiens, UniProt O00487)
Sequence (O00487 whole entry): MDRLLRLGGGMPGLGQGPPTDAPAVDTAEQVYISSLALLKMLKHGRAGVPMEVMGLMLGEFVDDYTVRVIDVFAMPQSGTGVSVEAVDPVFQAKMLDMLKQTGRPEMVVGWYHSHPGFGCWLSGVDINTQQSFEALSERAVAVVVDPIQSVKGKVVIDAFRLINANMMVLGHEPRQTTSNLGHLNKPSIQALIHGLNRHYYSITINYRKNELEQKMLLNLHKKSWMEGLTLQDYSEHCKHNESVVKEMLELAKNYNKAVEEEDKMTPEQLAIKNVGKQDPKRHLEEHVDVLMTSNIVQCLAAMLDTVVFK
Experiment: inhibition of proteasome subunit RPN11 – biochemical, fluorescence polarization, uHTS hits, confirmation (AID 602368)
Format: functional
Active and inactive are the calls of the source.
IC50 reference

Before answering, review these 4 worked examples.
> print(dat)
                                   compound                              study.target  property.measured      result.value
1         Cc1ccccc1NC(=NCCCN1CC1)Nc1ccccc1C  26S proteasome non-ATPase regulatory subunit 14 (Homo sapiens, UniProt O00487)               IC50  12.5 µM (active)
2           CN1C=CC(=CC=C2C=CC(=O)C=C2)C=C1  26S proteasome non-ATPase regulatory subunit 14 (Homo sapiens, UniProt O00487)               IC50  31.2 µM (active)
3  O=C1NC(=O)N(c2ccc(Cl)cc2)C(=O)/C1=C\c1ccc(Sc2nc3ccccc3[nH]2)o1  26S proteasome non-ATPase regulatory subunit 14 (Homo sapiens, UniProt O00487)               IC50  42.2 µM (active)
4          COc1cccc(NC2=Nc3cccc4cccc2c34)c1  26S proteasome non-ATPase regulatory subunit 14 (Homo sapiens, UniProt O00487)               IC50  27.6 µM (active)

State, in one line, measured IC50 of CCC(=O)NC(c1cccs1)c1cc([N+](=O)[O-])c2cccnc2c1O (stereo not given)
40.3 µM (active)

* * *

Target: Dual specificity tyrosine-phosphorylation-regulated kinase 1A (Rattus norvegicus)
Type: biochemical, Homo sapiens
Active and inactive are the calls of the source.
AC50 reference

> print(dat)
                              sample.smiles                              study.target      result.value
1  O=C1/C(=C/c2ccc3c(c2)OCO3)Oc2cc(OCC(=O)N3CCC[C@H]3C(=O)O)ccc21  Dual specificity tyrosine-phosphorylation-regulated kinase 1A (Rattus norvegicus)  4590 nM (active)
2  O=C1NC(=O)C(c2ccccc2[N+](=O)[O-])=C1Nc1ccc(O)c(Cl)c1  Dual specificity tyrosine-phosphorylation-regulated kinase 1A (Rattus norvegicus)  3110 nM (active)
3  COc1cc2c(cc1OC)-c1c3c(cc4c1[C@@H](C2)N(C)CC4)OCO3  Dual specificity tyrosine-phosphorylation-regulated kinase 1A (Rattus norvegicus)  2090 nM (active)

Now let's try a different one.
State, in one line, measured AC50 of O=C1N=C(N2CCc3ccccc3C2)S/C1=C\c1ccc(O)cc1
737 nM (active)

* * *

Assay: Luminescence Cell-Based Dose Confirmation HTS to Identify Activators of 5'UTR Stem-Loop Driven Alpha-Synuclein mRNA Translation in H4 Neuroglioblastoma Cells. [Related pubchem assays: 1829 (Project Summary), 1814 (Primary HTS)]
Format: functional
The source made the active and inactive calls.
Property measured: EC50

State, in one line, measured EC50 of COC(=O)c1ccc(NS(=O)(=O)NC(=O)c2cn(C)c3ccccc23)cc1
> 120 µM (not active)

State, in one line, measured EC50 of FC(F)(F)c1c[nH]c2c(-c3ccccc3)nnc-2c1
1.29 µM (active)

State, in one line, measured EC50 of CC(C)c1ccc(/C=C2\SC(=O)N(CC(=O)NCCCn3ccnc3)C2=O)cc1
29.8 µM (active)

State, in one line, measured EC50 of COc1ccc(C(=O)C[n+]2ccccc2C=NO)cc1
12.5 µM (active)

* * *

Target: ATP-dependent molecular chaperone HSP82 (Candida albicans (strain WO-1) (Yeast), UniProt C4YTQ8)
Sequence (C4YTQ8 whole entry): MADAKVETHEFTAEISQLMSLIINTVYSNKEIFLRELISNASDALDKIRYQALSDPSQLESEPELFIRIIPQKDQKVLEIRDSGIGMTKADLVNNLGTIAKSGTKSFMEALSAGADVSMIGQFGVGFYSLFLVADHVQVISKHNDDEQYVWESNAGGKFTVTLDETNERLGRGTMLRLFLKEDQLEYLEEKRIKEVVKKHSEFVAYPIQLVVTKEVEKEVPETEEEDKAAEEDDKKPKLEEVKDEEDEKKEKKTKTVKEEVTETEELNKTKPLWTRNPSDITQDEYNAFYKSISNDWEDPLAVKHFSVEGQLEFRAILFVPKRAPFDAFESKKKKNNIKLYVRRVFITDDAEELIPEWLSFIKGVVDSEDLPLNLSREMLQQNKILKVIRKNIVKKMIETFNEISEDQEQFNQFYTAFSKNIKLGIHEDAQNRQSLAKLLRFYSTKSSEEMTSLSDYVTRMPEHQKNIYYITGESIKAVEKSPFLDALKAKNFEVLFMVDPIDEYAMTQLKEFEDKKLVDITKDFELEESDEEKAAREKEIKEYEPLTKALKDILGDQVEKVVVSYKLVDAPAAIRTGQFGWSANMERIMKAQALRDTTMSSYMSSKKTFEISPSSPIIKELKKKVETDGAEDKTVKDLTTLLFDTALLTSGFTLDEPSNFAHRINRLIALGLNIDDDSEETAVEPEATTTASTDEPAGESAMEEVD
Assay: loss of DOC-induced GRE-beta-galactosidase reporter signal, dose response, Hsp90 inhibitor project, S. cerevisiae, luminescence (AID 2400);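 further: beta-galactosidase luminescence from glucocorticoid response element reporter as proxy for Hsp90 function; inhibitor potency where signal loss means Hsp90 inhibition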
Assay type: functional, cell-based
Calls of active or inactive are those of the source.
Allowed answers: Y for active, N for inactive

Please review the following examples before continuing.
> print(dat)
                                   molecule  qualitative.label
1  CCOC(=O)c1c(N=C(S)NCC2CCCO2)sc(C)c1C (stereo not given)                  Y
2  CCC(=O)NC(c1cccs1)c1cc([N+](=O)[O-])c2cccnc2c1O (stereo not given)                  Y
3  COc1ccc(C2C(C#N)=C(N)Oc3c2ccc2cccnc32)cc1OC (stereo not given)                  N

Call for entry CCc1nnc(NC(=O)CSc2nc(SC)ns2)s1 :
N

Call for entry COc1ccc(/C=C/c2cc(-c3ccc(C)cc3)o[n+]2C)cc1 :
N

* * *

Molecular target: Small ubiquitin-related modifier 1 (Homo sapiens)
Sequence (P63165 whole entry): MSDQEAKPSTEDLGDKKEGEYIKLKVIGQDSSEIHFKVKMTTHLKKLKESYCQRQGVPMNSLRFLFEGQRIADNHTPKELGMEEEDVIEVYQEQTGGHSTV
Experiment: inhibitors of SUMO1 partner interactions, dose response, biochemical, FRET (AID 624383)
Format: functional
Details: read-out: IC50_Mean
Calls of active or inactive are those of the source.
IC50 reference

Before answering, review these 3 worked examples.
> print(dat)
                                   compound      result.value
1  Cn1cc([N+](=O)[O-])c(C(=O)Nc2ccc(-c3nc4ccccc4o3)cc2)n1  17.3 µM (active)
2         Cc1ccccc1NC(=NCCCN1CC1)Nc1ccccc1C   2.8 µM (active)
3  C=C(C)C(=O)Nc1cccc(C2=NOC3(C2)C[C@H](C(N)=O)N(C(=O)c2ccccc2C(=O)c2ccccc2)C3)c1 (some centres undefined)  2.73 µM (active)

State, in one line, measured IC50 of Cc1c(CCC(=O)O)c(=O)oc2c(C)c(OCc3ccccc3Cl)ccc12
9.18 µM (active)

* * *

Biological target: Rac GTPase-activating protein 1 (Homo sapiens)
Sequence (Q9H0H5 whole entry): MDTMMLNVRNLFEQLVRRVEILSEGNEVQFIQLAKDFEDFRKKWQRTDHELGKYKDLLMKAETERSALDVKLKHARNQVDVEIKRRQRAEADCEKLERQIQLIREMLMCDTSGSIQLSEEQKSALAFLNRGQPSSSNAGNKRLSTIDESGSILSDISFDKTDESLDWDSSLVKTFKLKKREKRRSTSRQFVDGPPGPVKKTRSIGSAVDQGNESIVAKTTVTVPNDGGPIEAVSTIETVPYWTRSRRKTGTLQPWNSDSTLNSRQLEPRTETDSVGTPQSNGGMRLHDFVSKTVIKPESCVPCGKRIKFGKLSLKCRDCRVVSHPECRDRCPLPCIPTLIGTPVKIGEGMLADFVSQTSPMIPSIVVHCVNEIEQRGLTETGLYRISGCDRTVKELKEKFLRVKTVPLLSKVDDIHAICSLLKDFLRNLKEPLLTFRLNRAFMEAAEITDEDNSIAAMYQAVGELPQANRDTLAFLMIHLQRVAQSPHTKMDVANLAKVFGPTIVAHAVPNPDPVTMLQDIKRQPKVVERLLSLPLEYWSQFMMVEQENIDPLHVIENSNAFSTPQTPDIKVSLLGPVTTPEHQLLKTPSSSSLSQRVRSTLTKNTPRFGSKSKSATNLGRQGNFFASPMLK
Experiment: MgcRacGAP GTPase-activating activity inhibitors, confirmation, biochemical, ADP Hunter fluorescence, primary and confirmatory (AID 624330)
Type: functional
Activity calls are given as the source filed them.
Property measured: IC50

Before answering, review these 3 worked examples.
> print(dat)
                                   compound                              study.target  property.measured      result.value
1  COc1ccc(-c2cc3ccccc3n2CC(O)CN2CCCCC2)cc1 (centres undefined)  Rac GTPase-activating protein 1 (Homo sapiens)               IC50   110 µM (active)
2                        Nc1ccccc1Nc1ccccc1  Rac GTPase-activating protein 1 (Homo sapiens)               IC50  36.1 µM (active)
3   Nc1ccc(C(=O)N/N=C/c2ccc(N3CCOCC3)s2)cc1  Rac GTPase-activating protein 1 (Homo sapiens)               IC50  16.5 µM (active)

Now let's try a different one.
State, in one line, measured IC50 of COc1cc2c(cc1N=C(S)Nc1ccccc1C)oc1ccccc12
83.9 µM (active)

* * *

Biological target: Cytochrome P450 3A4 (Homo sapiens, UniProt P08684);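 further: CYP3A4 tested as one member of a cytochrome P450 panel screen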
Sequence (P08684 whole entry): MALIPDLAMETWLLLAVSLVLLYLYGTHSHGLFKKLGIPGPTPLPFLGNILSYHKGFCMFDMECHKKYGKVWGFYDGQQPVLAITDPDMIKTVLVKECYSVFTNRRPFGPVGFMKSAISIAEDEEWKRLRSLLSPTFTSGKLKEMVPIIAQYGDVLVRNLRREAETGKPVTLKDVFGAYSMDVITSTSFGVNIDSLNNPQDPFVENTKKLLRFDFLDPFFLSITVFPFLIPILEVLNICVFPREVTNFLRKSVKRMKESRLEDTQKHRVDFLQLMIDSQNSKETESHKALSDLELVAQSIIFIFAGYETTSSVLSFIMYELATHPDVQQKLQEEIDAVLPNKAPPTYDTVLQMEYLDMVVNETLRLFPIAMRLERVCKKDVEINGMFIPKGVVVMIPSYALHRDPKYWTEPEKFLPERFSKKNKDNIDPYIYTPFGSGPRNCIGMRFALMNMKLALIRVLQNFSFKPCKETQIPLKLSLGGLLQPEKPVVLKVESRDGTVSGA
Property measured: AC50

Before answering, review these 8 worked examples.
> print(dat)
                                   compound            result.value
1  O=C1c2ccccc2NC(c2ccc3c(c2)OCO3)N1O (stereo unspecified)  22.4 µM (inconclusive)
2          CN(C)Cc1ccccc1-c1cncnc1NCc1cccs1  1.26 µM (inconclusive)
3  OCCN1CCN(c2nc(N3CCCCC3)nc(N3CCCCC3)n2)CC1  14.1 µM (inconclusive)
4  COc1ccc(C2C(C(=O)N3CCOCC3)CCC(=O)N2c2ccc(OC)cc2)cc1 (stereo unspecified)  17.8 µM (inconclusive)
5  CCC(NC(=O)Nc1cc(OC)c(OC)c(OC)c1)(C(F)(F)F)C(F)(F)F  15.8 µM (inconclusive)
6       CCCCCOC(=O)CSc1nnc(-c2ccccc2)c(O)n1  22.4 µM (inconclusive)
7  O=C(NC12CC3CC(CC(C3)C1)C2)N1CCN(c2nc(-c3ccccc3)cs2)CC1  11.2 µM (inconclusive)
8  COC(=O)C1(CC(C)C)C=C2C(=C(c3ccccc3)C(=O)C2C)CN1 (stereo unspecified)  25.1 µM (inconclusive)

Quote Cytochrome P450 3A4 (Homo sapiens, UniProt P08684) AC50 for entry CC1=CC(=O)N(c2cccc(C(F)(F)F)c2)C1c1ccc(Cl)cc1 (stereo unspecified) .
10 µM (inconclusive)

Quote Cytochrome P450 3A4 (Homo sapiens, UniProt P08684) AC50 for entry N#Cc1c(N2CCCCC2)nc(N)c2c(N)nc3c(c12)CC(c1ccccc1)O3 (stereo unspecified) .
1 µM (inconclusive)

Quote Cytochrome P450 3A4 (Homo sapiens, UniProt P08684) AC50 for entry Cn1cccc1C(=O)N1CCC2(CCCN(C(=O)Nc3cccc(F)c3)C2)CC1 .
10 µM (inconclusive)
